Recorded values, source paper PMC10353187.

Tested on: SN12C
test-protocol: NCI-60 single-dose antiproliferative assay (SRB)
Format: cell-based
assay-conditions: Homo sapiens, 10 μM single dose, Renal cancer, read-out: Cell Growth inhibition Percent
Label condition met for high-side inhibition at 10 µM (at or above 20%) and condition not met for low-side inhibition at 10 µM (below it).

Use the examples below as a reference point.
molecule: O=C1Nc2ccccc2C1=CNc1ccc(C(=O)C=CNc2nccs2)cc1 [Compound 13c]
class-label: condition not met
//
molecule: NS(=O)(=O)c1ccc(NCc2ccc(NC=C3C(=O)Nc4ccccc43)cc2)cc1 [Compound 11a]
class-label: condition met
//
molecule: O=C1Nc2ccccc2C1=CNc1ccc(C(=O)C=CNc2ccc(S(=O)(=O)Nc3ncccn3)cc2)cc1 [Compound 13b]
class-label: condition not met
//
molecule: O=C(Nc1ccc(NC=C2C(=O)Nc3ccccc32)cc1)Nc1nccs1 [Compound 15c]
class-label: condition met
//
molecule: O=C(Nc1ccc(NC=C2C(=O)Nc3ccccc32)cc1)Nc1ccc(S(=O)(=O)Nc2ncccn2)cc1 [Compound 15b]
class-label: condition not met

Note: attention shifts to another entry.
Asked: Can O=C1Nc2ccccc2C1=CNc1ccc(C(=O)O)cc1 be said to have inhibition at 10 µM at or above 20%?
Given back: condition met
